Please provide measured normalized growth for the entries that follow.
- assay_details: chemical genetic growth profiling, strain panel (AID 1159580);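 note: tested at 20 µM; growth read once vehicle control cultures reached saturation at 30 °C; 1 = growth at the plate median or of vehicle wells; lower values mean less growth of the strain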
- protocol_conditions: S. cerevisiae deletion strains, growth OD, locus YFR010W, strain ubp6, stronger effect = lower value
About 2,000 (36%) of roughly 5,500 compounds were called active. Not shown: some 18% with an inconclusive outcome. The list shows a part of the results.
Numbers only.

Hello, I would appreciate it if you could give normalized growth for each entry below.
1. CC(C)(CO)C(O)C(=O)NCCCO (configuration not stated)
2. C=C1CC[C@H](O)C/C1=C/C=C1\CCC[C@]2(C)C([C@H](C)/C=C/[C@H](C)C(C)C)CC[C@@H]12 (some centres not stated)
3. OCC(O)Cc1ccc2c(c1)OCO2 (configuration not stated)
4. COc1cc2c(cc1OC)C(=O)C(CC1CCN(Cc3ccccc3)CC1)C2 (configuration not stated)
5. NC(=O)N1c2ccccc2CC(=O)c2ccccc21
6. Cc1cc(=O)c2c(O)cc(O)c(C)c2o1
7. COc1ccc2c(c1)OC[C@@H](Cc1ccc(OC)c(OC)c1)[C@H]2O

[reply]
1.01
1.02
1.01
1.03
0.947
0.942
1.01
